test: Multiple-dose escalation, steady state pharmacokinetics in healthy volunteers; type: in vivo, human; settings: human, plasma, oral; 5 mg free base equivalent once daily, day 21 steady state; healthy volunteers n=12; read-out: Cmax,ss
Text: […]
reported.property: Cmax (ng/mL)

CS(=O)(=O)O.Cc1nc(N(C)C(=O)Cc2ccc(-c3ccccn3)cc2)sc1S(N)(=O)=O [mono mesylate monohydrate salt] : 301

====

experiment: Single-dose escalation pharmacokinetics in volunteers; format: in vivo, human; conditions: plasma; single oral doses 5-600 mg free base equivalent; human; no obvious relation to dose; read-out: median tmax, range over doses
reported.property: Tmax

CS(=O)(=O)O.Cc1nc(N(C)C(=O)Cc2ccc(-c3ccccn3)cc2)sc1S(N)(=O)=O [mono mesylate monohydrate salt] : 1.5 to 4.25 h

====

test: Single-dose escalation pharmacokinetics in volunteers; assay type: in vivo, human; conditions: plasma; single oral dose 400 mg free base equivalent; human; mean, n = 6
reported.property: MRT (h)

CS(=O)(=O)O.Cc1nc(N(C)C(=O)Cc2ccc(-c3ccccn3)cc2)sc1S(N)(=O)=O [mono mesylate monohydrate salt] : 64

====

test: Single-dose escalation pharmacokinetics in volunteers; type: in vivo, human; settings: human, plasma; 400 mg dosage as free base equivalent, single oral dose; read-out: mean maximum blood plasma concentration (mean Cmax) of the free base
reported.property: Cmax (ng/mL)

CS(=O)(=O)O.Cc1nc(N(C)C(=O)Cc2ccc(-c3ccccn3)cc2)sc1S(N)(=O)=O [mono mesylate monohydrate salt] : 6930

====

assay: Single-dose escalation pharmacokinetics in volunteers; assay type: in vivo, human; details: single oral dose 400 mg free base equivalent; human; mean, n = 6; free base in plasma
reported.property: AUC(0-inf) (µg·h/mL)

CS(=O)(=O)O.Cc1nc(N(C)C(=O)Cc2ccc(-c3ccccn3)cc2)sc1S(N)(=O)=O [mono mesylate monohydrate salt] : 320

====

experiment: Single-dose escalation pharmacokinetics in volunteers; type: in vivo, human; settings: single oral dose 20 mg free base equivalent; human; mean, n = 6; free base in plasma; read-out: Cmax
reported.property: Cmax

CS(=O)(=O)O.Cc1nc(N(C)C(=O)Cc2ccc(-c3ccccn3)cc2)sc1S(N)(=O)=O [mono mesylate monohydrate salt] : 0.234 µg/mL

====

test: absolute bioavailability after oral administration; details: in vivo; oral administration of the mono mesylate monohydrate salt in a composition of the invention; human; read-out: absolute bioavailability of the free base
reported.property: bioavailability (%)

Cc1nc(N(C)C(=O)Cc2ccc(-c3ccccn3)cc2)sc1S(N)(=O)=O : 70

====

assay: Single-dose escalation pharmacokinetics in volunteers; format: in vivo, human; conditions: male, human, plasma; 40 mg dosage as free base equivalent, single oral dose; read-out: mean maximum blood plasma concentration (mean Cmax) of the free base
reported.property: Cmax (µg/mL)

CS(=O)(=O)O.Cc1nc(N(C)C(=O)Cc2ccc(-c3ccccn3)cc2)sc1S(N)(=O)=O [mono mesylate monohydrate salt] : 0.608

====

experiment: Multiple-dose escalation, steady state pharmacokinetics in healthy volunteers; type: in vivo, human; conditions: human, plasma, oral; 200 mg dosage as free base equivalent, steady state after once daily single doses for 21 days; read-out: mean maximum blood plasma concentration at steady state (mean Cmax,ss) of the free base
Text: […]
reported.property: Cmax (ng/mL)

CS(=O)(=O)O.Cc1nc(N(C)C(=O)Cc2ccc(-c3ccccn3)cc2)sc1S(N)(=O)=O [mono mesylate monohydrate salt] : 9990

Origin of the recorded values: patent US20150374676A1
